# subject of test: partially purified rat brain farnesyl protein transferase (FPT) (Rattus norvegicus, UniProt Q02293+Q04631)
# Construct: partially purified rat brain farnesyl protein transferase (FPT)
# assay remarks: FPT IC50, in vitro enzyme assay (inhibition of Ras-CVLS farnesylation)
# assay context: inhibition of Ras-CVLS farnesylation by partially purified rat brain FPT; value is a range stated for a group of compounds
# Procedure: 1. In vitro enzyme assays: FPT IC50 (inhibition of farnesyl protein transferase, in vitro enzyme assay) are determined by the methods disclosed in WO/10515 or WO95/10516.
pIC50: −log10 of the molar value.
Entries and their measured pIC50 follow.

| molecule | pIC50 |
| --- | --- |
| N#Cc1ccc(Cn2cncc2CCNC(=O)[C@H]2CN(Cc3ccc(C(F)(F)F)cc3)CCN2C(=O)NC2CCCCC2)cc1 [Example 15] | 7.68 to 9.74 |
| N#Cc1ccc(Cn2cncc2CCNC(=O)[C@H]2CN(Cc3cccc(Cl)c3)CCN2C(=O)NC2CCCCC2)cc1 [Example 25] | 7.68 to 9.74 |
| N#Cc1ccc(Cn2cncc2CCNC(=O)[C@H]2CN(Cc3ccc(Br)cc3)CCN2C(=O)NC2CCCCC2)cc1 [Example 17] | 7.68 to 9.74 |
| N#Cc1ccc(Cn2cncc2CCNC(=O)[C@H]2CN(Cc3ccc(F)cc3)CCN2C(=O)NC2CCCCC2)cc1 [Example 14] | 7.68 to 9.74 |
| N#Cc1ccc(Cn2cncc2CCNC(=O)[C@H]2CN(Cc3ccccc3C#N)CCN2C(=O)NC2CCCCC2)cc1 [Example 11] | 7.68 to 9.74 |
| N#Cc1ccc(Cn2cncc2CCNC(=O)[C@H]2CN(Cc3ccccc3)CCN2C(=O)Cc2ccccc2)cc1 [Example 28I] | 7.68 to 9.74 |
| O=C(NCCc1cncn1Cc1ccc(Cl)c(Cl)c1)C1CN(CCC2CCCCC2)CCN1C(=O)NC1CCCCC1 (stereo not drawn) [Example 36] | 7.68 to 9.74 |
| O=C(NCCc1cncn1Cc1ccc(C(F)(F)F)cc1)C1CN(CCc2cccc(Cl)c2)CCN1C(=O)NC1CCCCC1 (stereo not drawn) [Example 53] | 7.68 to 9.74 |
| COc1cccc(CN2CCN(C(=O)NC3CCCCC3)C(C(=O)NCCc3cncn3Cc3ccc(Cl)c(Cl)c3)C2)c1 (stereo not drawn) [Example 58] | 7.68 to 9.74 |
| N#Cc1ccc(Cn2cncc2CCNC(=O)[C@H]2CN(Cc3nccs3)CCN2C(=O)NC2CCCCC2)cc1 [Example 8] | 7.68 to 9.74 |
| CC(C)(C)NC(=O)N1CCN(Cc2ccccc2)C[C@@H]1C(=O)N(CCCn1ccnc1)Cc1ccccc1 [Example 28T] | 7.68 to 9.74 |
| Cn1cncc1CCNC(=O)C1CN(CCC2CCCCC2)CCN1C(=O)NC1CCCCC1 (stereo not drawn) [Example 61] | 7.68 to 9.74 |
| Cc1ccc(CN2CCN(C(=O)NC3CCCCC3)[C@@H](C(=O)NCCc3cncn3Cc3ccc(C#N)cc3)C2)cc1 [Example 22] | 7.68 to 9.74 |
| COc1ccccc1CN1CCN(C(=O)NC2CCCCC2)[C@@H](C(=O)NCCc2cncn2Cc2ccc(C#N)cc2)C1 [Example 27] | 7.68 to 9.74 |
| CCCCCN1CCN(S(C)(=O)=O)C(C(=O)NCCc2cncn2Cc2ccc(C#N)cc2)C1 (stereo not drawn) [Example 34] | 7.68 to 9.74 |
